Listing of pKi toward UniProt:P08908, each taken from a published source.
TESTED_TARGET: UniProt:P08908
Sequence (P08908 whole entry): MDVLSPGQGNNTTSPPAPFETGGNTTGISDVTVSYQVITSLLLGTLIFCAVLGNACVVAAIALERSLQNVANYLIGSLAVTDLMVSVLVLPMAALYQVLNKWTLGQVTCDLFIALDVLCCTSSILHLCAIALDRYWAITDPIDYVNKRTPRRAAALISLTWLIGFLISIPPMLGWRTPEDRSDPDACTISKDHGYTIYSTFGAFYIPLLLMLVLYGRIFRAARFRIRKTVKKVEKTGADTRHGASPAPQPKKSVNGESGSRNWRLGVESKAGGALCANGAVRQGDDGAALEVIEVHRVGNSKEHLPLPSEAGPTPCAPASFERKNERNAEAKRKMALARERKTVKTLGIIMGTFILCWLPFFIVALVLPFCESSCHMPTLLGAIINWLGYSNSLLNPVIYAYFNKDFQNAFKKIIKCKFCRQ
Interpret pKi as the negative base-10 log of the concentration measured in mol/L.

See these solved cases before continuing.
INSERT INTO assay_data (compound, assay_result) VALUES
  ('CCCCCC(=O)/C=C(O)/C=C/c1ccc(O)c(OC)c1', 5.19),
  ('CCCCC/C=C/C(=O)CCc1ccc(O)c(OC)c1', 4.74);

Q: Please give the measured pKi for this compound: O=C1CC2(CCCC2)CCN1CCN1CCN(c2ccccc2Cl)CC1
Result: 8.97

Q: // same read-out, input: Cc1cc(OCCCN2CCN(c3ccc(Cl)cc3)CC2)c2c(C)cc(=O)oc2c1
Result: 6.79

Q: Would you kindly repeat that for O=c1[nH]c(CCCCCN2CCN(c3ccc(Cl)cc3)CC2)nc2ccccc12 ?
Result: 6.94

Q: Further, for Cc1cc2c(OC[C@@H](O)CN3CC[C@@H](c4ccc5ccsc5c4)C[C@@H]3C)cccc2[nH]1 ?
Result: 8.35

Q: Then COc1ccccc1N1CCN(CCCCC(=O)NCc2ccccc2-c2ccccc2Cl)CC1 ?
Result: 7.70

Q: # repeat for Cn1c(=O)cnn(CCCCN2CCN(c3ccccc3C#N)CC2)c1=O
Result: 9.08

Q: What do you have for Fc1cccc(Cl)c1Oc1ncccc1OC1CCNC1 (configuration not stated) ?
Result: 6.69

Q: Now give it for CCC(=O)NC1CCc2ccc(CCN3CCN(c4nsc5ccccc45)CC3)cc21 (configuration not stated) too.
Result: 8.30

Q: What would you report for CC1(C)N=C(N)N=C(Nc2cccc(Br)c2)N1 ?
Result: 6.18

Q: And then O=C1CCc2ccc(OCCCCN3CCN(c4c(F)ccc5ccccc45)CC3)nc2N1 , what is it?
Result: 9.08

Q: // repeat for C[C@@H](NC(=O)CCCCCN1CCN(c2ccccc2-c2ccccc2)CC1)c1ccccc1 and report
Result: 7.10

Q: Do the same for CC(=O)Nc1ccc2c(c1)-c1cccc3c1C(C2)N(C)CC3 (configuration not stated) please
Result: 7.03

Q: Could you do the same for Cn1c(=O)cnn(CCCCN2CCN(c3ccccc3OCCCF)CC2)c1=O , please?
Result: 9.10

Q: Another: Cc1cc(OCc2nc(N)nc(N3CCN(C)CC3)n2)ccc1Cl
Result: 5.45

====

// merged dataset of pKi values, system = the protein given by its sequence, multiple refs
Target protein (sequence): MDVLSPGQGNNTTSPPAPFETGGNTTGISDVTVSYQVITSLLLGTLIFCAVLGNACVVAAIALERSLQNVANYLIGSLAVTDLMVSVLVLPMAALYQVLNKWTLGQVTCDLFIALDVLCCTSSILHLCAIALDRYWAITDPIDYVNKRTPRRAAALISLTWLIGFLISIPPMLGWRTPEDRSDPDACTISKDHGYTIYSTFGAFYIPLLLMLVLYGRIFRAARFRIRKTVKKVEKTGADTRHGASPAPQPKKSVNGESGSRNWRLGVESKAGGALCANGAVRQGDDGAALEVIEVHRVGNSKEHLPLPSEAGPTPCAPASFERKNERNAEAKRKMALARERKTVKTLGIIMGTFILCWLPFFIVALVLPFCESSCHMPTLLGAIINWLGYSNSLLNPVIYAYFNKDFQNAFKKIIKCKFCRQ
// scale note: pKi = -log10(conc_M); give the bare number

Worked cases, answers included:
INSERT INTO measurements (compound, assay_result) VALUES
  ('Fc1ccccc1Oc1cccc(F)c1OC1CCCNC1 (stereo not given)', 7.05),
  ('CC(C)c1ccccc1N1CCN(CCCCCCC(=O)N2CCC[C@H]2C(N)=O)CC1', 7.80),
  ('Cc1cc2c(OC[C@H](O)CN3CC[C@@H](c4cccc5sccc45)C[C@@H]3C)cccc2[nH]1', 8.74);

Now turn to the next compound.
Q: Endpoint output: pKi of O=S(=O)(NCC1CCN(CCOc2ccccc2-c2ccccc2)CC1)c1ccc(Cl)s1 . Value?
Result: 7.00
